- Subject of test: Tyrosyl-tRNA synthetase, putative (Trypanosoma cruzi (strain CL Brener))
- Assay name: Trypanosoma cruzi tyrosyl tRNA synthetase (TcYRS) SOP
- Type: functional
- Parameters: scale not given: direction of the effect not stated beside the values
- Condition details: 30 µM
Please use Satisfied for Percent Effect under 10% and Not satisfied for everything else, ties included.

Item O=C1C(NCc2nnc3n2CCCC3)CCN1c1ccccc1 (configuration not stated) : Percent Effect beneath 10%, strictly?
Not satisfied

Item CCc1nc(CN(C(C)=O)C2CCN(Cc3cnc(C)cn3)C2)no1 (configuration not stated) : Percent Effect beneath 10%, strictly?
Not satisfied

Item Cn1cnc2c1CCN(Cc1csc(-c3ccsc3)n1)C2 : Percent Effect beneath 10%, strictly?
Not satisfied

Item COc1ccccc1CC(=O)N1CCC(NCc2cccnc2)CC1 : Percent Effect beneath 10%, strictly?
Satisfied

Item Cc1csc(N2CCN(Cc3cnc(C)s3)CC2C)n1 (configuration not stated) : Percent Effect beneath 10%, strictly?
Not satisfied

Item CC(=O)N1CCC2(CCCN(C(=O)c3ccccc3)C2)C1 (configuration not stated) : Percent Effect beneath 10%, strictly?
Satisfied

Item Cc1nc(C)n(CC2CCCN2Cc2cn(-c3ccccc3)nn2)n1 (configuration not stated) : Percent Effect beneath 10%, strictly?
Satisfied

Item CN(C)c1ccc(C(=O)NCC2(O)CCOCC2)cc1 : Percent Effect beneath 10%, strictly?
Not satisfied

Item CC(NC(=O)N1CCCN(Cc2cccs2)CC1)c1cccnc1 (configuration not stated) : Percent Effect beneath 10%, strictly?
Not satisfied

Item CCc1nc(CN2CCCC(NCc3nc4cccnc4[nH]3)C2)no1 (configuration not stated) : Percent Effect beneath 10%, strictly?
Not satisfied

Item Cc1cnn(CCC(=O)N2CCCC(c3nc(C)no3)C2)c1 (configuration not stated) : Percent Effect beneath 10%, strictly?
Not satisfied

Item Nc1nc(C2CCN(C(=O)c3cncs3)CC2)cs1 : Percent Effect beneath 10%, strictly?
Not satisfied

###

For each of the compounds below, state its Percent Effect.
- Tested on: Trypanosoma cruzi
- Assay name: Trypanosoma cruzi phosphomannomutase and mannose-1-phosphate guanylyltransferase assay
- Type: functional
- Parameters: scale not given: direction of the effect not stated beside the values
- Condition details: 10 µM
Report as a plain number; the unit % is understood.

Dear colleague, I am looking for the recorded Percent Effect of the following compound: Cc1nccn1-c1cccc(C2CCCN(C3CCCCC3)C2)n1 (stereo unspecified)
2.17

Dear colleague, I am looking for the recorded Percent Effect of the following compound: CN(C)CCN1C[C@@H]2CN(C(=O)c3ccsc3)C[C@@H]2C1=O
-3.25

Dear colleague, I am looking for the recorded Percent Effect of the following compound: COc1ccc(-c2cnc(CN3CCn4c(C)nnc4C3)o2)cc1
10.9

Dear colleague, I am looking for the recorded Percent Effect of the following compound: CC(C)SCC(=O)N1CCc2c(nc(N(C)C)nc2N(C)C)C1
6.52

Dear colleague, I am looking for the recorded Percent Effect of the following compound: O=C(NC1COC2(CCN(Cc3ccccn3)CC2)C1)c1ccccn1 (stereo unspecified)
0.888

Dear colleague, I am looking for the recorded Percent Effect of the following compound: O=C(CO)N1CCc2onc(Cn3cccn3)c2C1
1.27

###

- Species on record: Homo sapiens
- Assay name: To identify inhibition of the IFN signalling (Jak-Stat) pathway via expression of an eGFP reporter gene under the control of an IFN-stimulated response element (ISRE) containing MxA promoter.
- Assay type: functional
- Design: scale not given: direction of the effect not stated beside the values
- Condition details: 30 µM
Quantity: Percent Effect (%)
Report as a plain number; the unit % is understood.

Dear colleague, I am looking for the recorded Percent Effect of the following compound: Cc1cc(C)nc(Nc2cc(C3CCCN(C)C3)nc(C)n2)n1 (stereo unspecified)
1.68

Dear colleague, I am looking for the recorded Percent Effect of the following compound: O=C(CN1CCOC(Cn2cccn2)C1)Nc1nncs1 (stereo unspecified)
13.3

Dear colleague, I am looking for the recorded Percent Effect of the following compound: CCOc1ccc(C(C)NC(=O)N2CCC(C(N)=O)CC2)cc1OC (stereo unspecified)
4.99

Dear colleague, I am looking for the recorded Percent Effect of the following compound: O=C1O[C@@H]2CN(Cc3cccc(F)c3)C[C@@H]2N1CCCN1CCOCC1
9.55

Dear colleague, I am looking for the recorded Percent Effect of the following compound: COC(=O)C1CCN(C(=O)CN2CCN(c3cccc(C)c3)CC2)CC1
0.408

Dear colleague, I am looking for the recorded Percent Effect of the following compound: CCCN1CC(C(=O)Nc2ccccn2)CC1=O (stereo unspecified)
15.4

Dear colleague, I am looking for the recorded Percent Effect of the following compound: CCCNCc1cn(C)nc1-c1cccnc1
-8

Dear colleague, I am looking for the recorded Percent Effect of the following compound: Cc1cc(NC(=O)NCCc2ccsc2)n(C)n1
-9.26

Dear colleague, I am looking for the recorded Percent Effect of the following compound: Cc1nc(C)n(CC2CCCN2Cc2cn3c(C)cccc3n2)n1 (stereo unspecified)
-19.9

Dear colleague, I am looking for the recorded Percent Effect of the following compound: CCc1nc(CN2CCN(C(=O)c3cnccn3)CC2)cs1
11.6

Dear colleague, I am looking for the recorded Percent Effect of the following compound: CCc1[nH]ncc1C(=O)N1CCCC(n2cccn2)C1 (stereo unspecified)
-9.13

Dear colleague, I am looking for the recorded Percent Effect of the following compound: CN(Cc1ccccc1)CC(O)Cn1cnc2ccsc2c1=O (stereo unspecified)
17.5

Dear colleague, I am looking for the recorded Percent Effect of the following compound: CC1CCCCN1C(=O)CN1CCN(c2ccc3nncn3n2)CC1 (stereo unspecified)
6.75

Dear colleague, I am looking for the recorded Percent Effect of the following compound: COCCNC(=O)[C@H]1CN(c2nnc(C)s2)C[C@H]2OCC[C@@H]12
6.49

Dear colleague, I am looking for the recorded Percent Effect of the following compound: Fc1cccc(-c2nc(CN3CCCCC3Cn3cncn3)co2)c1 (stereo unspecified)
-27.5

Dear colleague, I am looking for the recorded Percent Effect of the following compound: O=C(c1ccc(-n2cccn2)nc1)N1CCC(Nc2cccnn2)CC1
5.75

Dear colleague, I am looking for the recorded Percent Effect of the following compound: Cc1cc(C)n(CC(=O)N(C)Cc2csc(-c3cccs3)n2)c(=O)n1
17.8

Dear colleague, I am looking for the recorded Percent Effect of the following compound: CC(C)c1nc(C2CCCN2CC(=O)Nc2ccc(Cl)cn2)no1 (stereo unspecified)
4.35

Dear colleague, I am looking for the recorded Percent Effect of the following compound: O=C(NCc1nncn1-c1ccccc1)C1CC(=O)N(CC2CC2)C1 (stereo unspecified)
8.14

Dear colleague, I am looking for the recorded Percent Effect of the following compound: CN(Cc1ccccn1)C1COC2(CCN(Cc3nccs3)CC2)C1 (stereo unspecified)
5.05

Dear colleague, I am looking for the recorded Percent Effect of the following compound: COCC(=O)N1CC[C@@H](N2CCOCC2)[C@@H]1Cc1ccccc1
-2.33

Dear colleague, I am looking for the recorded Percent Effect of the following compound: CC1=N[C@@]2(CC[C@@H]3CN(CC(=O)N(C)C)C[C@@H]32)C(=O)N1CC(C)C
24.2

Dear colleague, I am looking for the recorded Percent Effect of the following compound: CN(C)[C@@H]1CN(Cc2ccco2)C[C@@H]2CCCO[C@@H]21
3.2

Dear colleague, I am looking for the recorded Percent Effect of the following compound: O=C(C1=CCCC1)N1CCC[C@]2(C[C@@H](OCc3ccncc3)CO2)C1
-6.85

Dear colleague, I am looking for the recorded Percent Effect of the following compound: CCn1ccnc1CNCC1CCCN1c1cc(NC)ncn1 (stereo unspecified)
12.1

Dear colleague, I am looking for the recorded Percent Effect of the following compound: CCc1ccc(S(=O)(=O)N2CCC3(CC(C(=O)NC)=NO3)C2)cc1 (stereo unspecified)
-7.8

Dear colleague, I am looking for the recorded Percent Effect of the following compound: NC(=O)c1ccc(N2CCCCC2)c(NC(=O)c2cc(Br)ccc2F)c1
1.93

Dear colleague, I am looking for the recorded Percent Effect of the following compound: CCn1cnnc1CNC(=O)CCC(=O)c1ccc2c(c1)OCCO2
11.5

Dear colleague, I am looking for the recorded Percent Effect of the following compound: CS(=O)(=O)N1CC[C@H]2C[C@@H](C(=O)N3CCOCC3)O[C@@H]2C1
-12.5

Dear colleague, I am looking for the recorded Percent Effect of the following compound: CN(C)CCOCC1CN(Cc2ccsc2)Cc2ccnn2C1 (stereo unspecified)
-1.71

Dear colleague, I am looking for the recorded Percent Effect of the following compound: CC(C)c1cc(C(=O)N(C)Cc2cccc3ncccc23)n(C)n1
36.7

Dear colleague, I am looking for the recorded Percent Effect of the following compound: COc1ccc(CNCCc2cc(F)cc3c2OCOC3)cc1O
2.67

Dear colleague, I am looking for the recorded Percent Effect of the following compound: CCS(=O)(=O)N1CCc2ccc(NC(=O)Nc3cccc(SC)c3)cc21
77.5

Dear colleague, I am looking for the recorded Percent Effect of the following compound: COCCOc1cccc(C(=O)N2CCCC(n3cccn3)C2)c1 (stereo unspecified)
7.63

Dear colleague, I am looking for the recorded Percent Effect of the following compound: CS(=O)(=O)NC[C@]12COC[C@H]1CN(C(=O)c1ccoc1)C2
21.3

Dear colleague, I am looking for the recorded Percent Effect of the following compound: Cc1n[nH]c(C)c1NC(=O)CN1CCOC(Cn2cccn2)C1 (stereo unspecified)
10.5

Dear colleague, I am looking for the recorded Percent Effect of the following compound: Cc1cc(C)n(-c2cncc(N3CCN(C(=O)C(C)(C)C)CC3)n2)n1
10.5

Dear colleague, I am looking for the recorded Percent Effect of the following compound: Cc1ccc(OCC(=O)NS(=O)(=O)c2c(C)noc2C)cc1C
17.7

Dear colleague, I am looking for the recorded Percent Effect of the following compound: Cc1ccc(Cl)cc1N1CCC(CNC(=O)CCn2ccnn2)C1 (stereo unspecified)
24.6

Dear colleague, I am looking for the recorded Percent Effect of the following compound: c1cncc(-c2ccc3c(c2)C2(CC3)CCN(c3nncs3)CC2)c1
47.4

Dear colleague, I am looking for the recorded Percent Effect of the following compound: Cc1cc(C)c(CNC(=O)N(C)CC2CCCCO2)c(=O)[nH]1 (stereo unspecified)
30.1

Dear colleague, I am looking for the recorded Percent Effect of the following compound: Cc1csc(CN2CC[C@H]3C[C@H](c4nnc(C)[nH]4)O[C@@H]3C2)n1
17.3

Dear colleague, I am looking for the recorded Percent Effect of the following compound: COc1ccc(OCCc2sc(C3(O)CCCNCC3)nc2C)cc1 (stereo unspecified)
21

Dear colleague, I am looking for the recorded Percent Effect of the following compound: CN1CCN(c2ncc3c(=O)n(-c4cccc(F)c4)c(=O)[nH]c3n2)CC1
-9.16

Dear colleague, I am looking for the recorded Percent Effect of the following compound: CCNc1cc2c(nn1)CCN(C(=O)Cc1c(C)noc1C)C2
6.32

Dear colleague, I am looking for the recorded Percent Effect of the following compound: Cc1ccc(C#N)cc1NC(=O)NC1CCCN(c2ncccn2)C1 (stereo unspecified)
20.9

Data credit: ChEMBL document CHEMBL3988442
